# Assay info: yeast display, Sf9 membrane polyspecificity reagent, FACS + sequencing; frameworks hold sequencing errors

Macromolecule sequence	polyreactivity (PSR sort gate)
QVQLVESGGGLVQAGGSLRLSCAASGLTFDWYAMGWYRQAPGKERELVAAISWNGVSTDYADSVKGRFTISRDNAKYTVYLQMNRLKPEDTAVYYCAADPPWYLYVGFDYWGQGTQVNVSS	high polyreactivity
QVQLVESGGGLVQAGGSLRLSCAASGRIFDIYGMGWYRQAPGKERELLAAITWRGGSTYYADSVKGRFTISRDNAKNTVYLQMKSLNPEDTAVYYCNARKRGARFILGYDYWGQGTQVTVSS	low polyreactivity
QVQLVESGGGLVQAGGSLRLSCAPSGSTFTSYAMGWYRQAPGKDRELVAAITYGSGTTYADSVKGRFTISRDNAKNTVYLQMNSLKPEDTAVYYCAADFYYPVLGHGFPTYEYDYWGQGTQVTVSS	low polyreactivity
QVQLVESGGGLVKAGGSLRLSCAASGITCTKNAMGWYRQAPGKERELVAAISTSGGSTYYADSVKGRFTISRDTAKNTVYLQMTSLKPEDTAVYYCAARAVIRGGRYFYWGQGTLVTVSS	high polyreactivity
QVQLQESGGGLVQVGGSLRLSCAASGTIFNYGFLGRNRQAPGKERELVASINLGGITNYADSVKGRFTISRDNAKNTVYLQMISLKPEDTAVYYCAAYVVTGQNYGYWGQGTQVTVSS	low polyreactivity
QVQLVESGGGLVQAGGSLRLSCASSGISFRRNAMGWYRQAPGKERELVAISTICGSTYYADSVNGRFTIARDNAKNTVYLQMNTLKPEDTAVYYCAAEGKSTGVYLDGGEGFAYDYWGQGTQVTVSS	low polyreactivity
QVQHVESGGGLVHAGGSLRLSCAASGTTFYFNPMGWSRQAPGKERELVASITWRGVSTYYADSVKGRFTISRDNAKNTVYLHMNSLNPEDTAVYYCAVAAGIPQRRFYYWGQGTQVTVSS	high polyreactivity
QVQLVESGGGLVQAGGSLRLSCAASGRIYIGNAMGWYRQAPGKERELVAAISKRGGSTYYADSVKGRFTISRDNAKNTVYLQMKSLKAEDTAVYYCIKESLYREFDYLGQGTQVTVSS	low polyreactivity
QVQLVESGGGLVQAGGSLRLSCAASGRTFEYYAMGWYRQAPGKERDLVAAISTSGGSTYYADSVKGRFTISRDNAKNTVYLQMNSLKPEDTAVYYCNKVQSTANDYWGQGTQVTVSS	low polyreactivity
QVQLVESGGGLVQAGGSLRLSCAASGSTVVYYAMGWYRQAPGKERELVAAITSGGSTNYADSVKGRFTISRDNAKITVYLQMNSLKPEDTAVYYCNAEPETTIDYWGQGTQVTVSS	low polyreactivity
QVQLVESGGGLVQAGGSLRLSCAASGRTFTFNSMGGYRQAPGKERELFSRIDWRGITYADSVKGRFTISRDNAKYTVYLQMNSLKPEVTAVYYCSATFIQVVVNVQLYDYDYWGQGTQVTVSS	low polyreactivity
QVQLVESGGGLVQAGGSLRLSCAASGYIFYYNTMGWYRQAPGKERELVAAISSAGSTNYADSVKGRFTISRDNAKNTVYLQMNSRKPEDTAVYYCAARTRFSYRRNSYGYWGQGTQVNVSS	high polyreactivity
QVQLVESGGGLVQAGGSLRLSCAASGSISGLYAKGWYRQAPGKERELVAAITFRDGTTSYADSVKGRFTISRDNAKNTVYLQMNSLKPEDTAVYYCAAVDRDSNSSVPTLVHWGQGTQVTVSS	low polyreactivity
QVQLVESGGGLVQAGGSLRLSCAASGSTFRSYAMGWYRQAPGKERELVAAITWRGGSTDYADSVKGRFTISRDNAKNTVYLQMNSLKPEDTAVYYCAAAIWGDYGAYDYWGQGTQVTVSS	low polyreactivity
QVQLVESGGGLVQAGGSLRLSCAASVFYPYAMGWYRQAPGKERELVAAISWSGGRTYYADSVKGRFTISRDNAKNTVYLQMNSLKPEDTAVYYCNKVYSSYRVYDFNYWGQGTQVTVSS	high polyreactivity
QVQIVESRGGLVQAGGSLRLSCAASGSIIRYYVMGWYRQAPRKERELVASISYSVGRTYYADSVKGRFTISRDNAKNTVYLQMNSLKPEDSAVYYCASDRYWPYYSAYYTSYRMDYWGQGTQVTVSS	high polyreactivity
QVQLVESGGGLVQAGGSLRLSCAASGITFWEYAMGWYRQAPWKERELVAAISRSGGSTYYADSVKGRFTISRDNAKNTVYLQMNSLKPEDTAVYYCADETRRPIYDYWGQGTQVTVSS	high polyreactivity
QVQLVESGGGLVQAGGSLRLSCAASGSTFTANAMGWYRQAPWKERELVASISAREGSTYADSVKGRFTISRDNANNTVYLQMNSLKPEDTAVYYCNAAYFHIFPYDYDYWGQCTQVTVSS	low polyreactivity
QVQLVESGGGLVQAGGSLRLSCAASGRTFRRNVMGWYRQAPGKERELVAAISSGANTNYADSVKGRFTISRDNAKNTVYLQMNSLKPEDTAVYYCNARWQEPLKYDYWGQGTQVTVSS	low polyreactivity
QVQLVESGGGLVQAGGSLRLSCAASGSIFTVYGMGWYRQAPGKERELVAAISRSGGSTYYADSVKGRFTISRDNAKNTVYLLMNSLKPEDTAVYYCAADVYRTWFWWFDYWGQGTQVTVSS	high polyreactivity
QVHLVESGGGLVQAGGSLRLSCAASGRIFTYYAMGWYRQAPGKERELVAAINSRGGRTYYADSVKGRFTISRDNAKNTVYLQMNSLKPEDTAVYYCNKAVYFAWGWGLRDYDYWGQGTQVTVSS	high polyreactivity

----------
# Assay info: yeast display, Sf9 membrane polyspecificity reagent, FACS + sequencing; frameworks hold sequencing errors

Macromolecule sequence	polyreactivity (PSR sort gate)
QVQLVESGGGFVQAGGSLRLICAAYRSIFSLYAMGWYRQAPGKERELVAHISSDGSTNYADSVKGRFTISRDNAKNTVYLQMNSLKPEDTAVYYCAKKPSSARYFTIGFDYWGQGTQVTVSS	low polyreactivity
QVQLVESGGGLVQAGGSLRLSCAASGFIFVKYAMGWYRQAPGKERELVAAISSTGGRTYYADSVKGRFTISRDNAKNTVYLQMNSLKPEVTAVYYCATEYGYPYGYWGQCTQVTVSS	high polyreactivity
QVQLVESGGGLVQAGGSLRLSCAASGSTFLNYAMGWYRQAPGKERELVAAISFSGGRTYYADSVKGRFTISRDNAKNTVFLQMNSLKPEDTAVYYCAARGSYAYYRGQGTQVTVSS	high polyreactivity
QVELVESGGGLVQAGGSLRLSCAASGFTFHSNVMGWYRQAPGKERELVAAISNGGGSTYYADSVKGRFTISRDNAKNTVYLQMNSLKPEDTAVYYCDKRTYPGFGYWGQGTQVTVSS	high polyreactivity
QVQLVESGGGIVQAGGSLRLSCAASGSTFYRYAMGWYRQAPGKERELVATITNSGGSTYYADSVKGRFTISRDNAKNTVYLQMNSLKPEDTAVYYCARVRSRNTGYYYWGQGTQVTVSS	high polyreactivity
QVQLVESGGGLVQAGGSLRLSCAASGSTFRPYAMGWYRQAPGTERELVAAISWSGGRTYYADSVKGRFTISRDNAKNNVYLQMNSLKPEDTAVYYCTRAGRQPKNTYDYWGQGTQVTVSS	high polyreactivity
QVQLVESGGGLVQAGGSLRLSCAASGFIFPGYAMGSYRQAPGKERELVAAISRRGGRTYYADSVKGRFTISRDNAKNTVYLQMNSLKPEDTAVYYCAAVVQSTQYICDYWGQGTQVTVSS	high polyreactivity
QVHLVESGGGLLQAGGSLPLSCAASGSIFYSYAMGWYRQAPGKVRELVAVISWSGGSTYYADSVKGRFTISRDNAKNTVYLQMNSLKPEDTAVYYCAADQGWEFDYWGQCTQVTVSS	low polyreactivity
QVQLVESGGGLVQAGGSLRLSCADSGSTFTVYVMGWYRQAPGKETEFVAAITRIGGSTYYADSVKGRFTISRDYAKNTVYLQRNCLKTEDTAVYYCATYHTNSYYQLLYDYWGQGTQVTVSS	low polyreactivity
QVQLVESGGVLVLVGGSLRLSCADSGMTFYWYTMGWYRQAPGKERELVAAITRRSARTYYADSVKGRFSISRDNAKNTVYLQMNILKPEDTAVYYCGAAGRPGGYVQRDSWGQGTQVTVSS	high polyreactivity
QVQLVESGGGLVQAGGSLRLSCAASGLIFYYYAIGWYRQAPGKERELVAAITTGGGTYYADSVKGRFSISRVNAKNTVYLQMNSLKPEDTAVYYCAVYYRSYWGYEYWGQGTQVTVSS	high polyreactivity

----------
# Assay info: yeast display, Sf9 membrane polyspecificity reagent, FACS + sequencing; frameworks hold sequencing errors

Macromolecule sequence	polyreactivity (PSR sort gate)
QVQLVESGGGLVQAGGSLRLSCASSGLTFTPNAMGWYRQAPGKEREFVAAITWRGGRTYYADSVKGRFTISRDNAKNTVYFQMKSLNPEDTAVYYCAVTYRPTYQLDYWGQGTQVTVSS	high polyreactivity
QVQLVESGGGLVQAGGSLRLSCAASGFTFDFYVMGWYRQAPGKERELVAAISWDGGTTYYADSVKGRFTISRDNAKNTVYLQMNSLKPEDTAVYYCAADDWVYVPTGAWYLYEYWGQGTQVTVSS	high polyreactivity
QVQLVESGGGLVQAGGSLRLSCAASGSTFSPYAMGWYRQAPGKERELVAAIRRGGSTNYADSVKGRFTISRDNAKNTVYLQMNSLKPEDTAVYYCAATKRRFVKFDYWGQGTQVTVSS	low polyreactivity
QVQLVESGGGLVQAGGSLRLSCAASGSTFGTYAMGWYRQAPGKERELVASIDNSTSGTYYADSVKGRFTISRDNAKNTVYLQMNSLKPEDTAVYYCAATPLVDGSSIPREGDYWGQGTQVTVSS	low polyreactivity
QVQLVESVGGLVQAGGSLRLSCAGSGFTFLYYAMGWYRQAPGKERELVDTISKSGGSTYYADSVKGRFTISRDNAKNTDYLQMNSLKPEDTAVDYFAAVGPYRWYDYWGQGTQVTVSS	high polyreactivity
QVQLVESGGGLVQAGGSLRLSCAASGSTFPINTMGWYRQAPGKERELVAAITHSGGRTYYADSVKGRFTISRVNAKNTVYLQMNSLKPEDTAVYYCNAVRYYAVRVSDGDYDYWGQGTQVTVSS	low polyreactivity
QVQLVESRGGLVQAGGSLRLSCAASGITFTRNVMGWYRPAPGKERELVAGISRSGGRTYYADSVKGRFTISRENAKNTVYLQMNSLKPEDTAVYYCAADYSRRTRVDDDYDYWGQGTQVTVSS	high polyreactivity
QVQLVESGGGIVQAGGILRLSSAASGRTFYSYTMGWSRQEPGKERELVAAINRGGSTYYADSVKGRFTISRDKAKNTVYLQMNSLKPEDTEVYYCAVGYAHSSNRRYYYKKTHGYWGQGTQVTVSS	low polyreactivity
QVQLVESGGGLVQAGGSLRLSCAASGSIFSGNEMGWYRQAPGKDSELVATISWSGGSTNYADSVKGGFTISRDNAKNTVYLQMNSLKPEDTSVYYCAAVPGWVRQADGWVLSLLDYWGQGTQVTVSS	low polyreactivity
QVQLVESGGGLVEAGGSLRLSCAASGRIFGRNAMGWYRQAPGKERELVAGISSGGTTDYADSVKGRFTISRDNAKNTVYLQMNSLKPEDTAVYYCNVGYAYDDQTYYLGESDYWGQGTQVTVSS	low polyreactivity
QVQLVESGGCLVQSGGSLRLSCAASGIILYYYAMGWYRQAPGKERELVAAISSGGNTYYADSVKGRFTISRDNAKNTVYLQMNSLKPEDPAVYFCASGTVIGGEYDYWGQGTQVTVSS	low polyreactivity
